- System: PC-3 prostate
- Experimental Details: NCI-60 one-dose screen, 48 h
- Condition Details: 10 µM unless noted
About 83,000 compounds went through this panel and 20% of them were active in at least one assay; those are over-represented in the sample as a whole. The source made the active and inactive calls. How the source made its calls: active means growth percent below 10; inactive means the rest.
In this exercise, the only acceptable responses are active, inactive

Query :: Each compound tested received a call. Report the one for Cc1cccc(CNc2c3ccccc3nc3ccccc23)c1 .
Result :: inactive

Query :: How about COc1ccccc1N1CCCCC1 ?
Result :: inactive

Query :: How about Cc1cccc(/C=C2\CN(C(=O)OC(C)(C)C)C/C(=C\c3cccc(C)c3)C2=O)c1 ?
Result :: inactive

Query :: How about COc1cc(C2CC(c3ccc(Nc4nc(Nc5ccc(Cl)cc5)nc(Nc5ccc(Cl)cc5)n4)cc3)=NN2C(C)=O)cc(OC)c1OC (stereo not given) ?
Result :: inactive

Query :: How about CN1C(=O)/C(=C\c2c(Cl)cccc2Cl)c2ccccc21 ?
Result :: inactive

Query :: How about CCOC(=O)C(=O)C(C(=O)OCC)c1ccccc1 (stereo not given) ?
Result :: inactive

Query :: How about O=C1C(Cl)=C(NCCCCCCNC2=C(Cl)C(=O)c3ccccc3C2=O)C(=O)c2ccccc21 ?
Result :: inactive

Query :: How about CCCCNC(=O)Oc1ccc(/C(=C(/C)Cc2ccc(OC)cc2)c2ccc(OCCN(CC)CC)cc2)cc1 ?
Result :: inactive

Query :: How about Cc1cc(N2CCN(CC(=O)Nc3ccc4c(ccn4C)c3)CC2)nc(N2CCCCCC2)n1 ?
Result :: inactive

Query :: How about O=C(C[C@]1(O)C(=O)Nc2ccccc21)c1cccc(C(F)(F)F)c1 ?
Result :: inactive

Query :: How about Nc1nc(-c2ccc(Cl)cc2)nc2c1sc(=S)n2-c1ccccc1 ?
Result :: inactive

Query :: How about CN(c1cc2ncc(=O)[nH]c2cc1NC(N)=NCc1ccc(Cl)cc1)C1CCCCC1 ?
Result :: inactive

Query :: How about O=CN1N=C(c2cccc(Nc3ccnc4cc(Cl)ccc34)c2)CC1c1ccccc1 (stereo not given) ?
Result :: inactive

Query :: How about CC1=NC2=Nn3c(c4cnn(-c5ccccc5)c4n/c3=N\N)NN2C(c2ccccc2)=C1 ?
Result :: inactive

Query :: How about CCOC(=O)c1cc2c(n1Cc1cc(OC)c(OC)c(OC)c1)-c1nc(N)sc1CCC2 ?
Result :: inactive

Query :: How about COc1cc2cc(NCc3cccc(Cl)c3)nc(C)c2cc1OC ?
Result :: inactive

Query :: How about C1CN(SSN2CCOCC2)CCO1 ?
Result :: inactive

Query :: How about N#CSc1c[nH]c2cccc(/C=C/C(=O)/C=C(/C=C/c3cccc4[nH]cc(SC#N)c34)OB(F)F)c12 ?
Result :: active

Query :: How about COc1cc(-c2nc3sccn3c2-c2ccnc(NCCNS(=O)(=O)c3ccccc3)n2)ccc1F ?
Result :: inactive

Query :: How about CCOC(=O)Cc1cnc(N/N=C(\C)c2cc3ccccc3o2)s1 ?
Result :: inactive

Query :: How about N#Cc1c(-c2ccc(Cl)cc2)c(C#N)c2c(C#N)c(N)nn2c1N ?
Result :: inactive

Query :: How about CCCCCCC12CCC(=O)N1CCc1cncn12 (stereo not given) ?
Result :: inactive

Query :: How about N=C(N)c1ccc(-c2ccc(-c3ccc(Cl)cc3Cl)s2)cc1 ?
Result :: active

Query :: How about CN1CCN(c2cc(Nc3cc(C4CC4)[nH]n3)nc(Nc3ccc(CC(=O)NCc4cccc(F)c4)cc3)n2)CC1 ?
Result :: inactive

Query :: How about O=S(=O)(NCCNc1nccc(-c2c(-c3ccc(F)c(O)c3)nc3sccn23)n1)c1ccc(O)cc1 ?
Result :: inactive

Query :: How about COc1ccc(C(=O)C/C(=C\c2ccc(Cl)cc2)C(=O)NCc2ccccc2)cc1 ?
Result :: inactive

Query :: How about COc1ccc(Nc2ncc(Br)c(NCCCNC(=O)c3cccs3)n2)cc1 ?
Result :: inactive

Query :: How about O=C(Nn1c2c(sc1=NC1CC1)C(=O)c1ccccc1C2=O)c1cc2ccc1CCc1ccc(cc1)CC2 ?
Result :: inactive

Query :: How about C=C1C(=O)O[C@H]2[C@H]1CC/C(COC(=O)c1cc3ccccc3s1)=C\CC[C@@]1(C)O[C@@H]21 ?
Result :: active

Query :: How about CCOCCNC1=C(Cl)C(=O)c2ccccc2C1=O ?
Result :: inactive

====

- Tested on: NCI/ADR-RES ovarian
- Experimental Details: NCI-60 one-dose screen, 48 h (100 = growth as untreated, 0 = no growth, -100 = all killed)
- Condition Details: 10 µM unless noted
About 83,000 compounds went through this panel and 20% of them were active in at least one assay; those are over-represented in the sample as a whole.
Labelling: growth reported below 70% becomes 1.0; at or above becomes 0.0.

Query :: Quick check: does CCCCCCCCCCCCCCCCCCOc1ccccc1CC(=O)OCC[N+](C)(C)C have growth under 70%?
Result :: 0.0

Query :: How about Cc1ccc(CNc2ccc3nc(CCC4CCCCC4)[nH]c3c2)cc1 ?
Result :: 1.0

Query :: How about O=S(=O)(NCCCNc1nccc(-c2c(-c3ccc(F)c(O)c3)nc3occn23)n1)c1ccc(Cl)cc1 ?
Result :: 0.0

Query :: How about C=C(C)[C@@H]1CCC[C@]2(COS(=O)(=O)c3ccc(C)cc3)CC[C@]3(C)[C@@H](CC[C@@H]4[C@@]5(C)CCCNC(C)(C)[C@@H]5CC[C@]43C)[C@@H]12 ?
Result :: 1.0

Query :: How about CS(=O)(=O)Nc1cc(-c2ccc3ncnc(Nc4ccc5c(cnn5Cc5ccc(F)cc5)c4)c3c2)cnc1Cl ?
Result :: 0.0

Query :: How about O=C(Nc1ccc(OS(=O)(=O)c2ccc(F)cc2)cc1)C1CCCCCC1 ?
Result :: 0.0

Query :: How about COc1cc2nc3cc([N+](=O)[O-])ccc3c(NCCNCC(C)O)c2cc1OC (centres undefined) ?
Result :: 0.0

Query :: How about CCO/C=N/C1=C(C#N)C(c2ccc(Cl)cc2)c2sc3c(F)cccc3c2O1 (centres undefined) ?
Result :: 1.0

Query :: How about O=C(CSc1nnc(-c2cnccn2)n1-c1ccccc1)c1ccc(Cl)cc1 ?
Result :: 0.0

Query :: How about O=C(NNC(=O)c1ccc(NC(=O)c2ccccn2)cc1)Nc1ccc([N+](=O)[O-])cc1 ?
Result :: 0.0

Query :: How about O=C1/C(=C/c2cccc(F)c2)CN(C(=O)C(Cl)Cl)C/C1=C\c1cccc(F)c1 ?
Result :: 1.0

====

- System: HCT-116 colon
- Experimental Details: NCI-60 one-dose screen, 48 h (100 = growth as untreated, 0 = no growth, -100 = all killed)
- Condition Details: 10 µM unless noted
Compounds without any hit were thinned out: in the full panel of roughly 83,000, 20% have a hit.
Assay Endpoint: growth (%)
Please reply with the bare figure in % and do not write the unit itself.

Query :: Given the entry OB1OCc2cc(/C=C/c3cccc(C(F)(F)F)c3)ccc21 , what growth was observed with HCT-116 colon?
Result :: 0.518

Query :: How about N#Cc1ccc(O)c(C2=NCC(c3ccccc3)O2)c1 (stereo unspecified) ?
Result :: 17.5

Query :: How about O=C(Nc1nc2ccc(C(=O)N3CCN(/C=C/c4ccccc4)CC3)cc2s1)c1ccc(NCCc2ccccc2)c([N+](=O)[O-])c1 ?
Result :: 11.2

Query :: How about COc1cc(NS(=O)(=O)c2ccc(-c3cnc(C4CC4)o3)cc2)ccc1F ?
Result :: 20.9

Query :: How about Nc1nc2ccc(-c3nc4ccc5[nH]ncc5c4c4c3CCCC4)cc2s1 ?
Result :: 91.8

Query :: How about CC(=O)Oc1ccc(/C(=C(\C)c2ccc(Cl)cc2)c2ccc(OCCN3CCCCC3)cc2)cc1 ?
Result :: 32.4

Query :: How about COc1ccc(-c2nc3c(ncc4ccc(=O)[nH]c43)s2)cc1 ?
Result :: 79.2

Query :: How about COc1ccccc1NC(=O)N=Nc1c(O)[nH]c2ccccc12 ?
Result :: 93

Query :: How about Cc1nc2sc(C(=O)Nc3cccc(Br)c3)c(N)c2cc1C(O)c1ccccc1 (stereo unspecified) ?
Result :: 16.2

Query :: How about CNC(=O)c1ccccc1Oc1nc(Nc2cc(OC)c(OC)c(OC)c2)ncc1Br ?
Result :: 46.5

Query :: How about CS(=O)(=O)Nc1cc(-c2ccc3ncnc(Nc4ccc5c(cnn5Cc5cccc(F)c5)c4)c3c2)cnc1Cl ?
Result :: 4.08

====

Hi there, I'd appreciate the recorded growth for every entry that follows.
- System: EKVX NSCLC
- Experimental Details: NCI-60 one-dose screen, 48 h (100 = growth as untreated, 0 = no growth, -100 = all killed)
- Condition Details: 10 µM unless noted
The panel holds about 83,000 compounds, 20% with a hit somewhere; the sample as a whole holds those more often.
Please reply with the bare figure in % and do not write the unit itself.

Query :: I would be grateful if you could share the reported growth for Cn1ccc(=O)c(C(=O)Nc2nsc3ccc([N+](=O)[O-])cc23)c1 .
Result :: 81.7

Query :: How about COC(=O)Nc1nc2ccc(S(=O)c3ccccc3)cc2[nH]1 (stereo unspecified) ?
Result :: 80

Query :: How about CSc1nc2ccccc2cc1/C=[N+](\[O-])c1ccccc1 ?
Result :: 79.5

Query :: How about N#Cc1c(-c2ccccc2)cc(-c2ccccc2)n(CCCC(=O)Nc2ccccc2N)c1=O ?
Result :: 79.1

Query :: How about CC1(C)CC(=O)C2=C(C1)N(c1ccc(OC(F)(F)F)cc1)C(N)=C(C#N)C2c1ccc(Br)cc1F (stereo unspecified) ?
Result :: 82

Query :: How about O=C(CSc1oc(-c2ccccc2)nc1S(=O)(=O)c1ccccc1)Nc1ccc(F)cc1 ?
Result :: 78.2
